Test system: HRV serotype 80
Experiment: HRV cytopathic effect assay
Type: cell-based
Details: Human rhinovirus sp.
pIC50: −log10 of the molar value.
measure-name: pIC50

>  <smiles-notation>
Cc1cc(CCCOc2c(C)cc(-c3noc(C(F)(F)F)n3)cc2C)on1

>  <value-observed>
6.77

$$$$

====

Experiment: Single dose oral pharmacokinetics in fed healthy young subjects
Assay type: in vivo, human
Details: human, plasma, po, 400 mg, fed healthy young subjects (N = 24), single oral dose 400 mg, mean; read-out: T1/2 (converted)
measure-name: half-life (h)

>  <compound>
Cc1cc(CCCOc2c(C)cc(-c3noc(C(F)(F)F)n3)cc2C)on1 [pleconaril]

>  <value-observed>
186

$$$$

====

Assay: Aqueous solubility
Type: physicochemical

>  <smiles-notation>
Cc1cc(CCCOc2c(C)cc(-c3noc(C(F)(F)F)n3)cc2C)on1

>  <solubility, µg/mL>
0.02

$$$$

====

Assay: Single dose oral pharmacokinetics in fed healthy young subjects
Format: in vivo, human
Settings: human, plasma, po, 400 mg, following oral absorption, alpha disposition phase; read-out: alpha half-life

>  <compound>
Cc1cc(CCCOc2c(C)cc(-c3noc(C(F)(F)F)n3)cc2C)on1 [pleconaril]

>  <half-life>
2 to 3 h

$$$$

====

System: HRV serotype 35
Assay: HRV cytopathic effect assay
Assay type: cell-based
Details: Human rhinovirus sp.
measure-name: IC50 (nM)

>  <smiles-notation>
Cc1cc(CCCOc2c(C)cc(-c3noc(C(F)(F)F)n3)cc2C)on1

>  <units-text>
nM

>  <value-observed>
40

$$$$

====

Experiment: Single dose oral pharmacokinetics in fed healthy young subjects
Type: in vivo, human
Settings: human, plasma; fed healthy young subjects (N = 24), single oral dose 400 mg, mean

>  <smiles-notation>
Cc1cc(CCCOc2c(C)cc(-c3noc(C(F)(F)F)n3)cc2C)on1

>  <AUC(0-inf) [ng·h/mL]>
29200

$$$$

====

Assay: Single dose oral pharmacokinetics in fed healthy young subjects
Format: in vivo, human
Conditions: human, plasma; fed healthy young subjects (N = 24), single oral dose 400 mg, mean; read-out: Vz/F
measure-name: Vd/F (L)

>  <smiles-notation>
Cc1cc(CCCOc2c(C)cc(-c3noc(C(F)(F)F)n3)cc2C)on1

>  <units-text>
L

>  <value-observed>
4110

$$$$

====

System: HRV serotype 90
Assay: HRV cytopathic effect assay
Type: cell-based
Details: Human rhinovirus sp.
pIC50: −log10 of the molar value.

>  <compound>
Cc1cc(CCCOc2c(C)cc(-c3noc(C(F)(F)F)n3)cc2C)on1 [pleconaril]

>  <system-name>
HRV serotype 90

>  <pIC50>
6.72

$$$$

====

Test system: HRV serotype 16
Assay: HRV cytopathic effect assay
Format: cell-based
Conditions: Human rhinovirus sp.
Procedure: For sensitivity testing to pleconaril, the appropriate cells were seeded into 96 well plates at a concentration of 4×10^4/well. After an overnight incubation at 37° C., the medium was removed and the cells were infected with 150 μL of a dilution of virus previously titrated to give ≧85% lysis of the monolayer after 3 days of incubation. […]

>  <smiles-notation>
Cc1cc(CCCOc2c(C)cc(-c3noc(C(F)(F)F)n3)cc2C)on1

>  <IC50 [nM]>
570

$$$$

====

Test system: dengue virus type 2, strain New Guinea (DEN-2)
Assay: Virus cytopathic effect assay for other viruses
Format: cell-based
Conditions: Vero
measure-name: IC50

>  <smiles-notation>
Cc1cc(CCCOc2c(C)cc(-c3noc(C(F)(F)F)n3)cc2C)on1

>  <measure-name>
IC50

>  <value-observed>
> 12.5 µM

$$$$

====

Tested on: respiratory syncytial virus, strain Long (RSV-A)
Test: Virus cytopathic effect assay for other viruses
Format: cell-based
Settings: human respiratory syncytial virus, HEp-2
measure-name: IC50

>  <smiles-notation>
Cc1cc(CCCOc2c(C)cc(-c3noc(C(F)(F)F)n3)cc2C)on1

>  <value-observed>
> 12.5 µM

$$$$

====

Assay: Single dose oral pharmacokinetics in fed healthy young subjects
Assay type: in vivo, human
Settings: human, plasma; fed healthy young subjects (N = 24), single oral dose 400 mg, mean

>  <compound>
Cc1cc(CCCOc2c(C)cc(-c3noc(C(F)(F)F)n3)cc2C)on1 [pleconaril]

>  <Cmax / ng/mL>
2300

$$$$
